# System: 454973-116-R2-J3-PDC spheroids, viability, % test/control;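 further: spheroids exposed to compounds for seven days; 100% = DMSO vehicle control viability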
# method: Anticancer human tumor 454973-116-R2-J3-PDC patient-derived pancreatic carcinoma cell line growth inhibition [GQUAD]
# condition: second compound 0.1 µM; first compound 0.316 µM; hits give low values; spheroids with HUVEC and MSC
property.measured: viability, T/C (%)
Numeric only. Scale: %

Nc1ccn(C2OC(CO)C(O)C2(F)F)c(=O)n1 (stereo not drawn) + Cc1[nH]c2ccc(F)cc2c1-c1nc2c3cccnc3c3ncccc3c2[nH]1
15.5
COc1ccc([C@@H](O)c2cc(-c3ncnc4cc(N5CCOCC5)ccc34)c(F)cc2Cl)nn1 + Cc1[nH]c2ccc(F)cc2c1-c1nc2c3cccnc3c3ncccc3c2[nH]1
95.3

From here, focus on the item given below.
Request: What value of viability, T/C on 454973-116-R2-J3-PDC spheroids, viability, % test/control does COc1cccc2c1C(=O)c1c(O)c3c(c(O)c1C2=O)CC(O)(C(=O)CO)CC3OC1CC(N)C(O)C(C)O1 (stereo not drawn) + CN(C)c1ccc(Nc2c3ccc(NC(=O)CCN4CCCC4)cc3nc3cc(NC(=O)CCN4CCCC4)ccc23)cc1 have?
Response: 36.3

The origin of these recorded values is PubChem BioAssay AID2060508.
